- PROCEDURE_TEXT: Inhibition of PDE1 at 10 uM in absence of calmodulin
RECORDED_METRIC: inhibition

Sample records with inhibition:
# COMPOUND_STRING, inhibition
records = [
    ("CNc1nc(C(F)(F)F)nc2c(Cc3ccccc3OC)cnn12", "20%"),
    ("CNc1nc(C)nc2c(-c3ccccc3)cnn12", "21%"),
    ("CCCc1nc(NC)n2ncc(Cc3ccccc3)c2n1", "24%"),
    ("CCCc1nc(NC)n2ncc(Cc3ccccc3OC)c2n1", "27%"),
    ("CNc1nc(C)nc2c(C(=O)c3ccccc3)cnn12", "16%"),
]

Record summary for CNc1nc(C)nc2c(Cc3ccccc3)cnn12 : reported inhibition = 37%

----------
- STUDY_TARGET: cGMP-dependent 3',5'-cyclic phosphodiesterase (Bos taurus)
- Sequence (whole entry): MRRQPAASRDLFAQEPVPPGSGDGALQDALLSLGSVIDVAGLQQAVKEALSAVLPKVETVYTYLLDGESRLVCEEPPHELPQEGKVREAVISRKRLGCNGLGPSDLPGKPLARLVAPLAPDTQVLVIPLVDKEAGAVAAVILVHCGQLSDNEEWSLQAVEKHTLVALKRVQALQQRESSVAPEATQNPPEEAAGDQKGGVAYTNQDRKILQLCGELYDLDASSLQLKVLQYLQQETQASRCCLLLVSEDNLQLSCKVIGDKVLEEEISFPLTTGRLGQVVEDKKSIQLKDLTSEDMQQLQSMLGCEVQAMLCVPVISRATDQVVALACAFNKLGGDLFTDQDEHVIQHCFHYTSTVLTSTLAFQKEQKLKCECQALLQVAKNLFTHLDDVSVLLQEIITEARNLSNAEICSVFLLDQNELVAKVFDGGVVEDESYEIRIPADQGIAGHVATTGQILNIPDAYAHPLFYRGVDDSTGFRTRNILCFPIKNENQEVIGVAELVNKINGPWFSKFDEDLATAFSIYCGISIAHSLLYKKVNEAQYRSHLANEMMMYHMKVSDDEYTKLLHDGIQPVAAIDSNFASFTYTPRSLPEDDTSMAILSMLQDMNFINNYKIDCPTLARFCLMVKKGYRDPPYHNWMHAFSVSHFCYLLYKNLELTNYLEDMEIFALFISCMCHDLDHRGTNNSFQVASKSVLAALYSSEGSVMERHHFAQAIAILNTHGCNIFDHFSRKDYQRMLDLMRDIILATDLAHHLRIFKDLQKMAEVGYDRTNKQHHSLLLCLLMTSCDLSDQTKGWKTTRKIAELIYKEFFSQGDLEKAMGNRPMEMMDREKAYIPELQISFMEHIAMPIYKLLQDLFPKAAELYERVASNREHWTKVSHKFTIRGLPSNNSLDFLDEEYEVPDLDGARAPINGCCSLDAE
- PROCEDURE_TEXT: Inhibition of bovine aorta PDE2 at 10 uM in absence of cGMP
RECORDED_METRIC: inhibition (%)
Reply with just the number (in %).

Sample records with inhibition:
# COMPOUND_STRING, STUDY_TARGET, READOUT_VALUE
records = [
    ("CCCc1nc(NC)n2ncc(Cc3ccccc3OC)c2n1", "cGMP-dependent 3',5'-cyclic phosphodiesterase (Bos taurus)", 19),
    ("CNc1nc(C)nc2c(-c3ccccc3)cnn12", "cGMP-dependent 3',5'-cyclic phosphodiesterase (Bos taurus)", 3.6),
    ("CCCc1nc(NC)n2ncc(Cc3ccccc3)c2n1", "cGMP-dependent 3',5'-cyclic phosphodiesterase (Bos taurus)", 20),
    ("CNc1nc(C)nc2c(C(=O)c3ccccc3)cnn12", "cGMP-dependent 3',5'-cyclic phosphodiesterase (Bos taurus)", 15),
    ("CNc1nc(C)nc2c(Cc3ccccc3)cnn12", "cGMP-dependent 3',5'-cyclic phosphodiesterase (Bos taurus)", 19),
]

--- query ---
Sample CNc1nc(C(F)(F)F)nc2c(Cc3ccccc3OC)cnn12 , system: cGMP-dependent 3',5'-cyclic phosphodiesterase (Bos taurus). Its inhibition is 16

----------
Each entry below lists one item and its recorded inhibition value.
- PROCEDURE_TEXT: Inhibition of PDE5 at 10 uM
Reply with just the number (in %).

Sample records with inhibition:
# COMPOUND_STRING, UNIT_DESCRIPTOR, inhibition
rows = [
    ("CCCc1nc(NC)n2ncc(Cc3ccccc3OC)c2n1", "%", 38),
    ("CNc1nc(C)nc2c(C(=O)c3ccccc3)cnn12", "%", 8),
    ("CCCc1nc(NC)n2ncc(Cc3ccccc3)c2n1", "%", 16),
]

Record summary for CNc1nc(C)nc2c(-c3ccccc3)cnn12 : reported inhibition = 11

Record summary for CNc1nc(C(F)(F)F)nc2c(Cc3ccccc3OC)cnn12 : reported inhibition = 74

Record summary for CNc1nc(C)nc2c(Cc3ccccc3)cnn12 : reported inhibition = 33

----------
- PROCEDURE_TEXT: Inhibition of PDE3 at 10 uM
Classification field: class 1 = inhibition at or over 9%; class 0 = inhibition under 9%.

# COMPOUND_STRING, LABEL_CLASS
rows = [
    ("CNc1nc(C)nc2c(Cc3ccccc3)cnn12", "class 0"),
    ("CCCc1nc(NC)n2ncc(Cc3ccccc3OC)c2n1", "class 1"),
    ("CNc1nc(C(F)(F)F)nc2c(Cc3ccccc3OC)cnn12", "class 1"),
]

Problem: Can CNc1nc(C)nc2c(-c3ccccc3)cnn12 be said to have inhibition at or above 9%?
Solution: class 0

Problem: Can CCCc1nc(NC)n2ncc(Cc3ccccc3)c2n1 be said to have inhibition at or above 9%?
Solution: class 1

Problem: Can CNc1nc(C)nc2c(C(=O)c3ccccc3)cnn12 be said to have inhibition at or above 9%?
Solution: class 1

Numbers sourced from ChEMBL document CHEMBL1149808.
